Each recorded value in this set is attributed to patent US6448256B1.

- Tested on: MRSA
- ASSAY NOTES: MIC against methicillin-resistant S. aureus strain MRSA / MRSA1
- Format: cell-based
- CONDITION LABEL: Staphylococcus aureus, MRSA; Table 5
VALUE TYPE: MIC (µg/mL)

CCc1cc(Nc2cc(=O)n(CCCO)c(=O)[nH]2)ccc1C [HP-EMAU]    8.3
CCc1cc(Nc2cc(=O)n(CCO)c(=O)[nH]2)ccc1C [HE-EMAU]    17.4
CCc1cc(Nc2cc(=O)[nH]c(=O)[nH]2)ccc1C [EMAU, 6-(3-ethyl-4-methylanilino)uracil, reference compound]    25
CCc1cc(Nc2cc(=O)n(CCCOC)c(=O)[nH]2)ccc1C [MP-EMAU]    3.9
CCc1cc(Nc2cc(=O)n(CCOC)c(=O)[nH]2)ccc1C [ME-EMAU]    8.3
